# RUN DESCRIPTION: Solubility of the compound of formula (I) as a function of time in aqueous solvents (HPLC)
# Assay type: physicochemical
# PARTICULARS: simulated gastric fluid, thermodynamic from solid; 0.1N HCl; ½ hr; 25° C. water bath, agitated
# Protocol: The sample vials were pulled out at each time point, the pH was measured and the sample was filtered a 0.45 μm PTFE membrane filter. The filtrate was appropriately diluted with the dilution solvent and the concentration of the compound was measured using HPLC. […]
MEASURED ATTRIBUTE: solubility at 0.5 h (mg/mL)
One number for each entry, in mg/mL.

# query: solubility at 0.5 h of entry Cc1cnc(NCC(F)(F)c2ccccc2)c(=O)n1CC(=O)NCCONC(=N)N [compound of formula (I)]
31.6

====

# RUN DESCRIPTION: Solubility of the compound of formula (I) as a function of time in aqueous solvents (HPLC)
# Format: physicochemical
# PARTICULARS: aqueous buffer, thermodynamic from solid; citrate buffer pH 2; 7 days; kept at room temperature with no agitation
# Procedure: The sample vials were pulled out at each time point, the pH was measured and the sample was filtered a 0.45 μm PTFE membrane filter. The filtrate was appropriately diluted with the dilution solvent and the concentration of the compound was measured using HPLC. […]
MEASURED ATTRIBUTE: solubility at 7 days (µg/mL)
One number for each entry, in µg/mL.

# query: solubility at 7 days of entry `Cc1cnc(NCC(F)(F)c2ccccc2)c(=O)n1CC(=O)NCCONC(=N)N`
4000

====

# RUN DESCRIPTION: Solubility of the compound of formula (I) as a function of time in aqueous solvents (HPLC)
# Assay type: physicochemical
# PARTICULARS: aqueous buffer, thermodynamic from solid; citrate buffer pH 6; ½ hr; 25° C. water bath, agitated
MEASURED ATTRIBUTE: solubility at 0.5 h (µg/mL)
One number for each entry, in µg/mL.

# query: solubility at 0.5 h of entry `Cc1cnc(NCC(F)(F)c2ccccc2)c(=O)n1CC(=O)NCCONC(=N)N`
2100

====

# RUN DESCRIPTION: Solubility of the compound of formula (I) as a function of time in aqueous solvents (HPLC)
# Assay type: physicochemical
# PARTICULARS: simulated intestinal fluid (SIF), 25 °C, pH 6.75, fassgf or other biorelevant, thermodynamic from solid
MEASURED ATTRIBUTE: solubility

# query: solubility of entry Cc1cnc(NCC(F)(F)c2ccccc2)c(=O)n1CC(=O)NCCONC(=N)N [compound of formula (I)]
2700 to 2800 µg/mL

====

# RUN DESCRIPTION: Solubility of the compound of formula (I) as a function of time in aqueous solvents (HPLC)
# Type: physicochemical
# PARTICULARS: simulated gastric fluid, thermodynamic from solid; 0.1N HCl; 48 hr; 25° C. water bath, agitated
MEASURED ATTRIBUTE: solubility at 48 h (mg/mL)
One number for each entry, in mg/mL.

# query: solubility at 48 h of entry `Cc1cnc(NCC(F)(F)c2ccccc2)c(=O)n1CC(=O)NCCONC(=N)N`
39.2

====

# RUN DESCRIPTION: Solubility of the compound of formula (I) as a function of time in aqueous solvents (HPLC)
# Format: physicochemical
# PARTICULARS: aqueous buffer, thermodynamic from solid; 0.1N NaOH (pH ˜12.8); 24 hr; 25° C. water bath, agitated
MEASURED ATTRIBUTE: solubility at 24 h (µg/mL)
Give bare numbers, in µg/mL.

# query: solubility at 24 h of entry `Cc1cnc(NCC(F)(F)c2ccccc2)c(=O)n1CC(=O)NCCONC(=N)N`
1000
